Listed here: items and their measured phosphorylation enrichment.
Test system: AncSZ;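 further: 11-residue human phosphosite peptides and single-mutation variants displayed on the E. coli surface, counted by deep sequencing, each peptide's frequency after selection divided by its frequency in the unselected input library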;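 further: frequency after pTyr selection over input frequency; kinase dosed for 20-30% of maximal phosphorylation in three min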
Experiment: phosphorylation enrichment, bacterial display (enrichment ratio); higher = better substrate or ligand; peptides without Tyr show the background
reported_endpoint: phosphorylation enrichment

• GHMYAYDWISI [BEST1_Y227_L224M] = 2.18
• CEHRGFLYLAI [TEK_Y897_Y897F] = 0.971
• IRCQGYSHRIL [MYO3B_Y993_R990C] = 0.723
• FLGRNYLETLM [DUS3L_Y610_D609N_YF] = 0.679
• KKHFSYAWPFF [BRDT_Y291_YF] = 1.03
• SSAAGYACLAY [MVD_Y131] = 0.9
• ADKSAYLMGLN [MYH7_Y386] = 0.625
• SLLLSYYLIKW [NUP160_Y773_P768S] = 1.12
• SLDLSYFHTSS [EMD_Y181_P183H_YF] = 0.799
• RFLRGYRQHAF [HLA-A_Y137_D140H_YF] = 0.606
• QQLDEYQELLD [LMNA_Y359] = 1.63
• GGDAVYTNGAI [RFX2_Y82] = 0.654
• EYHRLYEEYTR [PIK3R1_Y467_D464H] = 1.45
• RPASQYPHQVP [ADAM12_Y895_P893S] = 0.533
• RGDCTYAPLLG [AR_Y269_M268T] = 1.21
• LMIEEYLTKEP [BAG3_Y457_L462P] = 2.05
• FAASSYSFSDL [EMD_Y59_S54F] = 0.813
• TSQSQYSSFRE [CCDC170_Y323_F324S] = 0.604
• QGGRRYMMIVD [GAA_Y438] = 0.606
• VCRHNYGVVES [HLA-DRB1_Y112_Y107V] = 0.768
• VHNLDYYKETT [FGFR3_Y647_K650E] = 0.903
• CTHDLYMIMRE [FGFR3_Y724] = 1.31
• DGDTRYSTFSE [TKTL1_Y318] = 0.837
• NQDRTYYERVR [SPEN_Y632_S635R] = 0.617
• VPVPGYTKLPE [SPRR3_Y146] = 0.865
• EEQKRYYNAMK [SCN5A_Y1494_K1493R] = 0.623
• LTFHMYADPNI [SOS1_Y618_F623I_YF] = 2.46
• KDFNKYVAYIE [KDM4B_Y31] = 0.718
• QRTMKYTTATE [MCCC1_Y41_G46E] = 1.43
• DEDFLCREELA [POR_Y575_Y575C_YF] = 1.25
• PPTYRYERGSR [INPPL1_Y663] = 0.509
• GIVKAYYVRAR [AIPL1_Y267] = 1.03
• KKRSVYLKVLF [CC2D2A_Y683] = 1.01
• SNVEQYQAMVT [TPR_Y965] = 0.754
• KKCTRYIDCAL [ASPA_Y64_D68A] = 0.684
• KGFRGYSFDDI [TMEM230_Y110_YF] = 0.824
• RVQKRYIFDNV [RCN1_Y115] = 0.531
• EQKKYYNAMKN [SCN5A_Y1495_K1500N] = 0.507
• FAKTQYPDIFA [CRX_Y63_V66I_YF] = 0.667
• YMRGMYFRMKD [PLA2G6_Y541] = 0.924
• KTVQDYLKKFF [MMP8_Y36_E38K_YF] = 1.07
• SFVMVYEGNAR [INSR_Y1038_G1035V] = 1.28
• SENYTYIWWLN [PSG4_Y271_K267E] = 1.27
• SVTYTYSPALN [TP53_Y126_C124Y] = 1.5
• PPLMLYNPTTY [EGFR_Y270] = 0.518
• TLKDVCDDGKF [RPS6KA3_Y483_Y483C_YF] = 1.03
• PDSVDYRKKGF [CTSK_Y121_YF] = 0.524
• SQQTYCRVSNM [ABCD1_Y181_Y181C] = 0.799
• RSFPSYFTSHV [NEFL_Y442_YF] = 0.869
• ASTHVYQIMNH [ITK_Y588] = 0.703
• CEAMEYLESKQ [BTK_Y511] = 1.94
• RGDSAYHSQRH [ERBB3_Y1132] = 0.51
• ILGRTYYVNHE [NEDD4_Y627] = 0.928
• KDHRDYKFQPR [SOX9_Y172_P170R_YF] = 0.543
• ECKEAYHEGEC [PRKN_Y372] = 1.32
• LKVKAYRFSIS [LCT_Y974] = 0.911
• PCLLRYLQLDF [ASB10_Y457_R453C] = 1.5
• QGFDTYFGYLL [ARSB_Y165_R160Q] = 2.72

====

Target: c-Src SH2;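 further: peptide library displayed on the E. coli surface as eCPX fusions, selected cells deep-sequenced, score is each peptide's frequency after selection divided by its frequency in the input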
Test: SH2 binding enrichment of the phosphorylated peptide, bacterial display (enrichment ratio); higher = better substrate or ligand; peptides without Tyr show the background
reported_endpoint: SH2 binding enrichment

• RLEGVYRNNID [PTEN_Y46] = 0.398
• LKLWDYRRGRC [WDR5B_Y239_S240R] = 0.415
• CRPPYYHRNCM [HGD_Y334_F329C] = 1.65
• RDIHDYIKHLG [UNC13C_Y308] = 0.507
• LIYTNYEAGKD [GSTP1_Y112] = 0.503
• QGFDTYFGYLL [ARSB_Y165_R160Q] = 0.327
• KFMVGYEMLAQ [GALT_Y339] = 3.23
• VPDTNYTSDEE [STK33_Y439_A437T] = 0.675
• CVGGFYGGCNE [CTSC_Y352_Y347C] = 0.908
• NVFGNYNQQPS [HNRNPA2B1_Y306_D302V] = 0.584
• LMIEEYLTKEP [BAG3_Y457_L462P] = 0.552
• LLKKMYLMLDN [STAT1_Y203] = 0.957
• IEEGTYGVAYR [CDK11B_Y449_V452A] = 0.471
• KGELRYMHSRV [ABCD1_Y281] = 1.27
• KGKLIYLLRDS [NXPE1_Y350_G353R] = 1.75
• AQAERYDDMAA [YWHAG_Y20_E15A] = 2.79
• RFVFFYSFLLK [PTEN_Y178_YF] = 0.552
• FLTSSYINIST [IL23R_Y178_YF] = 2.66
• EVQKDYEHLFK [PAM16_Y77_N76D] = 0.592
• ARMTNCGLPRY [TSPAN12_Y138_Y138C] = 0.845
• FGISGYLVDSV [MAP2K3_Y214] = 0.656
• GRPMDYHVSIT [OTOF_Y254_Q255H] = 0.575
• RDSQIYAVDYE [MRPS34_Y34_L33I] = 0.485
• RPASQYPHQVP [ADAM12_Y895_P893S] = 0.53
• FVTSMYNEILI [TRPV1_Y310_M315I] = 4.5
• GVFSRYFTTFD [CLCA1_Y661_YF] = 0.395
• CTTIHYNCMCN [TP53_Y234_Y236C] = 0.508
• TVLWQYTGTRP [UGT1A1_Y337_R336Q] = 0.455
• YPPTHYIRRMP [SLC4A11_Y820_V824M] = 0.606
• SMGMKYLEEKN [ZAP70_Y451] = 0.638
• SLALFYRNVYH [RBL1_Y792_K794N] = 0.446
• KSLSQYLEMDK [CAGE1_Y438_V435L] = 1.4
• QQLDEYQELLD [LMNA_Y359] = 0.452
• EPAVLYNLKER [MYH7_Y103_D107E] = 0.486
• SDGHEYIYVDP [PDGFRB_Y579] = 0.557
• EEGESHVCSSD [DCX_Y125_Y125H] = 0.623
• TSQSQYSSFRE [CCDC170_Y323_F324S] = 0.663
• LVSCAYQVARG [FGFR1_Y605] = 0.644
• KGEDFYCVTRH [FHL1_Y149_C153R] = 0.357
• HSQEDYFECFQ [ZIM2_Y411] = 0.531
• EQKKYYNAMKN [SCN5A_Y1495_K1500N] = 0.431
• IATTIYSGDKI [UGGT2_Y823_A821T] = 0.516
• CEHRGFLYLAI [TEK_Y897_Y897F] = 0.883
• EYHRLYEEYTR [PIK3R1_Y467_D464H] = 1.86
• QKMLDYLKEKK [RYR2_Y3780] = 0.498
• TNYCLYLRSLE [MTM1_Y71_R69C] = 0.696
• FSDQVYRQRRK [TH_Y230] = 0.421
• NTYEKYLGEEY [TF_Y669] = 2.41
• CDIARYIVSQL [MAST2_Y461_P459A] = 0.578
• SFHCSYSEIKD [DCLRE1C_Y322_S320C] = 3.86
• WCKPLYFSCAV [MMS22L_Y28_P27L] = 1.32
• EDDIIYTQDFT [STK11_Y362] = 0.554
• RASSSYRETPS [SORBS1_Y79] = 0.491
• PECEWYKNGVK [TTN_Y2112] = 0.39
• EQKRFYNAMKK [SCN5A_Y1495_K1493R_YF] = 0.86
• KQQEIYQELTQ [CD209_Y239] = 0.585
• GQSKGYRPKLF [SIPA1L3_Y1376_YF] = 0.299
